Target: T1, SWSAP1 (hSWS1-SWSAP1, WT);hSWS1 (Homo sapiens;Homo sapiens, UniProt Q6NVH7;Q19AV6 22-250;1-140, |)
T1 sequence 1: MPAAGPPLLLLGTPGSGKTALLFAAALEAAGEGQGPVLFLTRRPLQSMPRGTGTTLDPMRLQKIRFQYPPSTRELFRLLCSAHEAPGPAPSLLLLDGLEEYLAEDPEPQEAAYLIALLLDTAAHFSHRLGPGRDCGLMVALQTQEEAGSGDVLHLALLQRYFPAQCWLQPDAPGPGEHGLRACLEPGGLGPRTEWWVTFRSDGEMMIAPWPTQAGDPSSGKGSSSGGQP
T1 sequence 2: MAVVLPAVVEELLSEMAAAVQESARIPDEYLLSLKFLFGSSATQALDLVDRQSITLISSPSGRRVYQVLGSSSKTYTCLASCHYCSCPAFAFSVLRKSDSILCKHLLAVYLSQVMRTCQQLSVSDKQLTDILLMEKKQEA
Experiment: fluorescence polarization; no nucleotide; FPA: 5 nM 6-FAM DNA, 37 C, 2 mM nucleotide where stated (buffer not given in material); EMSA: 0.05 uM 6-FAM DNA, 5%/15% native PAGE; RAD51 filaments: 2 mM ATP
Settings: protein: recombinant;recombinant; tags: N-terminal 6xHis-TEV, cleaved;none; copies: 1;1; label: 3' 6-FAM
measurement_label: Kd

So what does the record say about Kd for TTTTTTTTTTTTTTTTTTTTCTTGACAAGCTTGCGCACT (ssDNA) [ss39] ?
11.2 µM
